experiment: Terminal half life in Sprague-Dawley rat at 25 mg/kg, po measured up to 24 hrs by LC-MS analysis; assay type: ADME, organism-based; conditions: in vivo, read-out: beta t1/2 (converted)

>  <Smi>
O=C(Nc1ccc2[nH]ncc2c1)[C@]12ON=C(c3cccnc3)[C@H]1[C@@H]1CC[C@H]2C1

>  <Units Label>
h

>  <half-life>
4.6

$$$$

---

experiment: Cytotoxicity against human HepG2 cells assessed as reduction in cell viability; assay type: toxicity, cell-based; details: read-out: LC50 (the source's name)

>  <Smi>
O=C(Nc1ccc2[nH]ncc2c1)[C@]12ON=C(c3cccnc3)[C@H]1[C@@H]1CC[C@H]2C1

>  <CC50>
> 50 µM

$$$$

---

# Lookup of reported Ratio IC50 keyed by entry
test: Selectivity ratio of IC50 for inhibition of human CYP11B2 to IC50 for inhibition of human CYP11B1; type: ADME
Recorded Endpoint: Ratio IC50

>  <Compound>
O=C(Nc1ccc(Cl)cc1)[C@]12ON=C(c3cccnc3)[C@H]1[C@@H]1CC[C@H]2C1

>  <Value Measured>
81

$$$$
>  <Compound>
N#Cc1cccc(NC(=O)[C@]23ON=C(c4cccnc4)[C@H]2[C@@H]2CC[C@H]3C2)c1

>  <Value Measured>
62

$$$$
>  <Compound>
CN(C(=O)[C@]12ON=C(c3cccnc3)[C@H]1[C@@H]1CC[C@H]2C1)c1ccccc1

>  <Value Measured>
23

$$$$
>  <Compound>
COc1cccc(NC(=O)[C@]23ON=C(c4cccnc4)[C@H]2[C@@H]2CC[C@H]3C2)c1

>  <Value Measured>
75

$$$$
>  <Compound>
N#Cc1cccc(-c2cncc(C3=NO[C@]4(C(=O)Nc5ccc6[nH]ncc6c5)[C@H]5CC[C@H](C5)[C@H]34)c2)c1

>  <Value Measured>
27

$$$$
>  <Compound>
O=C(Nc1cccc(Cl)c1)[C@]12ON=C(c3cccnc3)[C@H]1[C@@H]1CC[C@H]2C1

>  <Value Measured>
69

$$$$
>  <Compound>
O=C(Nc1ccccc1F)[C@]12ON=C(c3cccnc3)[C@H]1[C@@H]1CC[C@H]2C1

>  <Value Measured>
43

$$$$
>  <Compound>
O=C(Nc1ccccc1)[C@]12ON=C(c3cccnc3)[C@H]1[C@@H]1CC[C@H]2C1

>  <Value Measured>
36

$$$$
>  <Compound>
O=C(Nc1cccc([N+](=O)[O-])c1)[C@]12ON=C(c3cccnc3)C1[C@@H]1CCC2C1 (single isomer, unassigned)

>  <Value Measured>
41

$$$$
>  <Compound>
O=C(Nc1ccc2[nH]ncc2c1)[C@]12ON=C(c3cncc(-c4cccc(C(F)(F)F)c4)c3)[C@H]1[C@@H]1CC[C@H]2C1

>  <Value Measured>
23

$$$$
>  <Compound>
O=C(Nc1cccc(Cl)c1Cl)[C@]12ON=C(c3cccnc3)[C@H]1[C@@H]1CC[C@H]2C1

>  <Value Measured>
33

$$$$
>  <Compound>
O=C(Nc1cnc2[nH]ccc2c1)[C@]12ON=C(c3cccnc3)[C@H]1[C@@H]1CC[C@H]2C1

>  <Value Measured>
97

$$$$
>  <Compound>
O=C(Nc1cccc(F)c1)[C@]12ON=C(c3cccnc3)[C@H]1[C@@H]1CC[C@H]2C1

>  <Value Measured>
58

$$$$
>  <Compound>
O=C(Nc1ccc2[nH]ncc2c1)[C@]12ON=C(c3cccnc3)[C@H]1[C@@H]1CC[C@H]2C1

>  <Value Measured>
125

$$$$
>  <Compound>
COc1ccc(NC(=O)[C@]23ON=C(c4cccnc4)[C@H]2[C@@H]2CC[C@H]3C2)cc1

>  <Value Measured>
51

$$$$
>  <Compound>
COc1ccccc1NC(=O)[C@]12ON=C(c3cccnc3)[C@H]1[C@@H]1CC[C@H]2C1

>  <Value Measured>
53

$$$$
>  <Compound>
O=C(Nc1ccc2[nH]ncc2c1)[C@]12ON=C(c3cncc(-c4ccsc4)c3)[C@H]1[C@@H]1CC[C@H]2C1

>  <Value Measured>
39

$$$$
>  <Compound>
Cc1ccc(NC(=O)[C@]23ON=C(c4cccnc4)[C@H]2[C@@H]2CC[C@H]3C2)cc1

>  <Value Measured>
49

$$$$
>  <Compound>
N#Cc1ccc(-c2cncc(C3=NO[C@]4(C(=O)Nc5ccc6[nH]ncc6c5)[C@H]5CC[C@H](C5)[C@H]34)c2)cc1

>  <Value Measured>
28

$$$$
>  <Compound>
N#Cc1ccc(NC(=O)[C@]23ON=C(c4cccnc4)[C@H]2[C@@H]2CC[C@H]3C2)cc1

>  <Value Measured>
83

$$$$
>  <Compound>
Cc1ccccc1NC(=O)[C@]12ON=C(c3cccnc3)[C@H]1[C@@H]1CC[C@H]2C1

>  <Value Measured>
52

$$$$
>  <Compound>
O=C(Nc1ccc2[nH]ncc2c1)[C@]12ON=C(c3cncc(Br)c3)[C@H]1[C@@H]1CC[C@H]2C1

>  <Value Measured>
30

$$$$
>  <Compound>
O=C(Nc1ccc2[nH]ncc2c1)[C@]12ON=C(c3cncc(-c4cccc(F)c4)c3)[C@H]1[C@@H]1CC[C@H]2C1

>  <Value Measured>
52

$$$$
>  <Compound>
O=C(Nc1ccc(F)cc1)[C@]12ON=C(c3cccnc3)[C@H]1[C@@H]1CC[C@H]2C1

>  <Value Measured>
53

$$$$
>  <Compound>
O=C(Nc1cccc(F)n1)[C@]12ON=C(c3cccnc3)[C@H]1[C@@H]1CC[C@H]2C1

>  <Value Measured>
47

$$$$
>  <Compound>
O=C(Nc1ccc2cc[nH]c2c1)[C@]12ON=C(c3cccnc3)[C@H]1[C@@H]1CC[C@H]2C1

>  <Value Measured>
82

$$$$
>  <Compound>
Cc1cccc(NC(=O)[C@]23ON=C(c4cccnc4)[C@H]2[C@@H]2CC[C@H]3C2)c1

>  <Value Measured>
63

$$$$
>  <Compound>
O=C(Nc1ccc2[nH]ncc2c1)[C@]12ON=C(c3cncc(-c4ccoc4)c3)[C@H]1[C@@H]1CC[C@H]2C1

>  <Value Measured>
17

$$$$
>  <Compound>
O=C(Nc1nc2ccccc2[nH]1)[C@]12ON=C(c3cccnc3)[C@H]1[C@@H]1CC[C@H]2C1

>  <Value Measured>
28

$$$$

---

molecular target: Cytochrome P450 11B1, mitochondrial (Homo sapiens); experiment: Inhibition of human CYP11B1 expressed in Chinese hamster V79 MZh cells using [14C]-deoxycorticosteron as substrate measured after 6 hrs by phosphoimager analysis
Sequence (P15538 whole entry): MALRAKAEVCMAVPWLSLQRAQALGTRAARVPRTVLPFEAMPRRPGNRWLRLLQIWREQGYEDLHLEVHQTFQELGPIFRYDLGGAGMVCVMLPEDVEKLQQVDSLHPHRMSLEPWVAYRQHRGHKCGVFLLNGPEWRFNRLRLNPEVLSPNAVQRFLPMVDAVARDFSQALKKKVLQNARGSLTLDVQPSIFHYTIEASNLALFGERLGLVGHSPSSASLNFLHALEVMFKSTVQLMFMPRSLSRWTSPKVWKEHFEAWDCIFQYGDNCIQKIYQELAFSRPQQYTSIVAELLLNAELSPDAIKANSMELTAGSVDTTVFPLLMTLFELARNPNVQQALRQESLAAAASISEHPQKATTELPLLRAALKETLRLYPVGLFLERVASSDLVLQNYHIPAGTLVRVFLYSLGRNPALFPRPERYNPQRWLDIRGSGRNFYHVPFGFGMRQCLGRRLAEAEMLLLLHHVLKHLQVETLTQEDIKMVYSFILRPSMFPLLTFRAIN
pIC50: −log10 of the molar value.
Reported pIC50 values follow for various compounds

>  <Smi>
O=C(Nc1ccc2[nH]ncc2c1)[C@]12ON=C(c3cncc(-c4ccoc4)c3)[C@H]1[C@@H]1CC[C@H]2C1

>  <Target Under Test>
Cytochrome P450 11B1, mitochondrial (Homo sapiens)

>  <pIC50>
7.34

$$$$
>  <Smi>
CN(C(=O)[C@]12ON=C(c3cccnc3)[C@H]1[C@@H]1CC[C@H]2C1)c1ccccc1

>  <Target Under Test>
Cytochrome P450 11B1, mitochondrial (Homo sapiens)

>  <pIC50>
6.74

$$$$
>  <Smi>
Cc1cccc(NC(=O)[C@]23ON=C(c4cccnc4)[C@H]2[C@@H]2CC[C@H]3C2)c1

>  <Target Under Test>
Cytochrome P450 11B1, mitochondrial (Homo sapiens)

>  <pIC50>
6.82

$$$$
>  <Smi>
Cc1ccncc1NC(=O)[C@]12ON=C(c3cccnc3)[C@H]1[C@@H]1CC[C@H]2C1

>  <Target Under Test>
Cytochrome P450 11B1, mitochondrial (Homo sapiens)

>  <pIC50>
6.94

$$$$
>  <Smi>
Nc1ccccc1NC(=O)[C@]12ON=C(c3cccnc3)[C@H]1[C@@H]1CC[C@H]2C1

>  <Target Under Test>
Cytochrome P450 11B1, mitochondrial (Homo sapiens)

>  <pIC50>
6.86

$$$$
>  <Smi>
O=C(Nc1ccc(Cl)cc1)[C@]12ON=C(c3cccnc3)[C@H]1[C@@H]1CC[C@H]2C1

>  <Target Under Test>
Cytochrome P450 11B1, mitochondrial (Homo sapiens)

>  <pIC50>
7.08

$$$$
>  <Smi>
COc1ccccc1NC(=O)[C@]12ON=C(c3cccnc3)[C@H]1[C@@H]1CC[C@H]2C1

>  <Target Under Test>
Cytochrome P450 11B1, mitochondrial (Homo sapiens)

>  <pIC50>
6.95

$$$$
>  <Smi>
N#Cc1ccc(NC(=O)[C@]23ON=C(c4cccnc4)[C@H]2[C@@H]2CC[C@H]3C2)cc1

>  <Target Under Test>
Cytochrome P450 11B1, mitochondrial (Homo sapiens)

>  <pIC50>
7.34

$$$$
>  <Smi>
N#Cc1cccc(-c2cncc(C3=NO[C@]4(C(=O)Nc5ccc6[nH]ncc6c5)[C@H]5CC[C@H](C5)[C@H]34)c2)c1

>  <Target Under Test>
Cytochrome P450 11B1, mitochondrial (Homo sapiens)

>  <pIC50>
7.92

$$$$
>  <Smi>
O=C(Nc1ccccc1)[C@]12ON=C(c3cccnc3)[C@H]1[C@@H]1CC[C@H]2C1

>  <Target Under Test>
Cytochrome P450 11B1, mitochondrial (Homo sapiens)

>  <pIC50>
6.78

$$$$
>  <Smi>
O=C(Nc1ccc([N+](=O)[O-])cc1)[C@]12ON=C(c3cccnc3)[C@H]1[C@@H]1CC[C@H]2C1

>  <Target Under Test>
Cytochrome P450 11B1, mitochondrial (Homo sapiens)

>  <pIC50>
7.02

$$$$
>  <Smi>
O=C(Nc1cnc2[nH]ccc2c1)[C@]12ON=C(c3cccnc3)[C@H]1[C@@H]1CC[C@H]2C1

>  <Target Under Test>
Cytochrome P450 11B1, mitochondrial (Homo sapiens)

>  <pIC50>
7.77

$$$$
>  <Smi>
O=C(Nc1ncccn1)[C@]12ON=C(c3cccnc3)[C@H]1[C@@H]1CC[C@H]2C1

>  <Target Under Test>
Cytochrome P450 11B1, mitochondrial (Homo sapiens)

>  <pIC50>
6.75

$$$$
>  <Smi>
O=C(Nc1ccc2[nH]ncc2c1)[C@]12ON=C(c3cncc(-c4cccc(F)c4)c3)[C@H]1[C@@H]1CC[C@H]2C1

>  <Target Under Test>
Cytochrome P450 11B1, mitochondrial (Homo sapiens)

>  <pIC50>
8.10

$$$$
>  <Smi>
O=C(Nc1nc2ccccc2[nH]1)[C@]12ON=C(c3cccnc3)[C@H]1[C@@H]1CC[C@H]2C1

>  <Target Under Test>
Cytochrome P450 11B1, mitochondrial (Homo sapiens)

>  <pIC50>
6.97

$$$$
>  <Smi>
O=C(Nc1ccccc1F)[C@]12ON=C(c3cccnc3)[C@H]1[C@@H]1CC[C@H]2C1

>  <Target Under Test>
Cytochrome P450 11B1, mitochondrial (Homo sapiens)

>  <pIC50>
6.87

$$$$
